Tested on: MRC5
measurementProtocol: Cytotoxicity in human MRC5 cells assessed as reduction in cell viability incubated for 72 hrs by MTS assay
Format: cell-based
experimentalConditions: MRC5, 72 h
pIC50: −log10 of the molar value.
reportedEndpoint: pIC50

Solved cases (3 shown):
Q. Provide pIC50, tested on MRC5, for `COc1cc2c(-c3cnc(-c4ccc[nH]4)o3)c[nH]c2cc1Br` .
A. 5.15

Q. Provide pIC50, tested on MRC5, for `COc1cc(Br)cc2[nH]c(I)c(-c3cnc(-c4ccc[nH]4)o3)c12` .
A. < 5.00

Q. Provide pIC50, tested on MRC5, for `COc1cc(Br)cc2[nH]cc(-c3cnc(-c4ccc[nH]4)o3)c12` .
A. < 5.00

Next:
Q. Provide pIC50, tested on MRC5, for `COc1cc(Br)cc2[nH]cc(-c3cnc(-c4ccc(Br)[nH]4)o3)c12` .
A. < 5.00

Q. Provide pIC50, tested on MRC5, for `COc1cc(Br)cc2[nH]cc(-c3cnc(-c4cc(Br)c[nH]4)o3)c12` .
A. < 5.00

Q. Provide pIC50, tested on MRC5, for `COc1cc(Br)cc2[nH]cc(-c3oc(-c4ccc[nH]4)nc3I)c12` .
A. < 5.00

---

System: PLC-PRF-5
measurementProtocol: Cytotoxicity in human PLC/PRF/5 cells assessed as reduction in cell viability incubated for 72 hrs by SRB assay
experimentalConditions: PLC-PRF-5, 72 h
reportedEndpoint: IC50 (µM)
Write the answer as a number in µM, unit excluded.

Q. Give the value of IC50 reported for the following: `COc1cc2c(-c3cnc(-c4ccc[nH]4)o3)c[nH]c2cc1Br`
A. 1.5

---

Test system: SK-BR-3
measurementProtocol: Cytotoxicity in human SK-BR-3 cells assessed as reduction in cell viability incubated for 72 hrs by SRB assay
experimentalConditions: SK-BR-3, 72 h
reportedEndpoint: IC50 (nM)
Write the answer as a number in nM, unit excluded.

Q. Give the value of IC50 reported for the following: `COc1cc2c(-c3cnc(-c4ccc[nH]4)o3)c[nH]c2cc1Br`
A. 1500

---

targetOrSystem: Myosin light chain kinase family member 4 (Homo sapiens)
Sequence (Q86YV6 whole entry): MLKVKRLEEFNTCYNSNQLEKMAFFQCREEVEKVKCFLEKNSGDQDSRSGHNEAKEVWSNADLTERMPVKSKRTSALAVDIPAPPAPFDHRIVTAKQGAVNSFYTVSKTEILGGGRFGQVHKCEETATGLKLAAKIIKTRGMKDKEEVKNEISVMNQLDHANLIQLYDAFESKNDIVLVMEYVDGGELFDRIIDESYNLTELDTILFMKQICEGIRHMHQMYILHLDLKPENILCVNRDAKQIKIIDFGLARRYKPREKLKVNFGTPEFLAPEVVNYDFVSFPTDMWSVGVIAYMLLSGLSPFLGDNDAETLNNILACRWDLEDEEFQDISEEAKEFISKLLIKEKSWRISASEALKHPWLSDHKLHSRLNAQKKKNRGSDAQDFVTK
measurementProtocol: Binding affinity to wild-type human partial length MYLK4 (V79 to S380 residues) expressed in bacterial expression system by active-site directed competition binding assay based Kinomescan method
reportedEndpoint: Kd (nM)
Write the answer as a number in nM, unit excluded.

Q. Provide Kd, tested on Myosin light chain kinase family member 4 (Homo sapiens), for `COc1cc2c(-c3cnc(-c4ccc[nH]4)o3)c[nH]c2cc1Br` .
A. 430
